The measured values listed here are drawn from patent US11739098B2.

Biological target: human TLR9 (Homo sapiens)
Sequence (Q9NR96 26-1032): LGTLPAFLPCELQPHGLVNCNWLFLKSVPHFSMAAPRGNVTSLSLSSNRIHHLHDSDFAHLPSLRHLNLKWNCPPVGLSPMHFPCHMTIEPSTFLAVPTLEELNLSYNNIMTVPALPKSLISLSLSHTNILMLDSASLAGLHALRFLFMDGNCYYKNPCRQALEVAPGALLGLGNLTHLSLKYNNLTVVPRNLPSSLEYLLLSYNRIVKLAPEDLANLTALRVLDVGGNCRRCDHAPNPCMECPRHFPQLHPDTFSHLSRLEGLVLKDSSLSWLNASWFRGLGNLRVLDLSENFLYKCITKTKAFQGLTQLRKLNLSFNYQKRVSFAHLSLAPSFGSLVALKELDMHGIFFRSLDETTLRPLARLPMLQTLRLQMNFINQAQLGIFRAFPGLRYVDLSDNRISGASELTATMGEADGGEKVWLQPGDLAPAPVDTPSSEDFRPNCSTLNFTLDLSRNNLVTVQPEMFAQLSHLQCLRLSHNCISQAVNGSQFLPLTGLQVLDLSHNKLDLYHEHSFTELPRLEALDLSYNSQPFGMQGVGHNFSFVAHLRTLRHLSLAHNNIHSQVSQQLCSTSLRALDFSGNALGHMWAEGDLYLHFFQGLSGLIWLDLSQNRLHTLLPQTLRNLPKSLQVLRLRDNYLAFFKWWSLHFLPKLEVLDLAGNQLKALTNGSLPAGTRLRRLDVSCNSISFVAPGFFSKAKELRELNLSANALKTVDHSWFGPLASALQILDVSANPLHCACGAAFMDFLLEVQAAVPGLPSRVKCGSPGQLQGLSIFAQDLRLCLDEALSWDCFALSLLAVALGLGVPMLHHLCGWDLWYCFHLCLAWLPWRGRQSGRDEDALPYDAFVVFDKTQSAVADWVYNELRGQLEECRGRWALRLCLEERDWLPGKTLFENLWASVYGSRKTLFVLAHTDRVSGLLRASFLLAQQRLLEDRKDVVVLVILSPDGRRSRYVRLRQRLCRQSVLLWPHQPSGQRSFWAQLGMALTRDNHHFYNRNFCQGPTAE
Test: TLR9 inhibition reporter assay (HEK-Blue cells, SEAP reporter, ODN2006 stimulation)
Details: HEK-Blue cells overexpressing human TLR9, SEAP reporter, ODN2006 5 nM
pIC50: −log10 of the molar value.
Metric Name: pIC50

GET /values?readout=pIC50&system=human TLR9 (Homo sapiens)&item= `COc1c(C)c(-c2[nH]c3ccc(C4CCN(C(=O)CN(C)C)CC4)cc3c2C(C)C)nn2ncnc12` 4.30 to 6.00

pIC50 of `CC(C)c1c(-c2cc(N)c3nccn3c2)[nH]c2ccc(C3CCNCC3)cc12` on human TLR9 (Homo sapiens)? 6.00 to 7.00

Could you share what pIC50 was measured for `CC(C)c1c(-c2ccc(C#N)c3ncccc23)[nH]c2ccc(C3CCN(C4COC4)CC3)cc12` , tested on human TLR9 (Homo sapiens)? < 4.30

Under human TLR9 (Homo sapiens): pIC50 value of `CC(C)c1c(-c2cnc3[nH]ncc3c2)[nH]c2ccc(C3CCN(C(=O)CN(C)C)CC3)cc12` ? 4.30 to 6.00

----------
Catalogue of pIC50 readings, one per entry.
Target: human TLR7 (Homo sapiens, UniProt Q9NYK1)
Sequence (Q9NYK1 27-1049): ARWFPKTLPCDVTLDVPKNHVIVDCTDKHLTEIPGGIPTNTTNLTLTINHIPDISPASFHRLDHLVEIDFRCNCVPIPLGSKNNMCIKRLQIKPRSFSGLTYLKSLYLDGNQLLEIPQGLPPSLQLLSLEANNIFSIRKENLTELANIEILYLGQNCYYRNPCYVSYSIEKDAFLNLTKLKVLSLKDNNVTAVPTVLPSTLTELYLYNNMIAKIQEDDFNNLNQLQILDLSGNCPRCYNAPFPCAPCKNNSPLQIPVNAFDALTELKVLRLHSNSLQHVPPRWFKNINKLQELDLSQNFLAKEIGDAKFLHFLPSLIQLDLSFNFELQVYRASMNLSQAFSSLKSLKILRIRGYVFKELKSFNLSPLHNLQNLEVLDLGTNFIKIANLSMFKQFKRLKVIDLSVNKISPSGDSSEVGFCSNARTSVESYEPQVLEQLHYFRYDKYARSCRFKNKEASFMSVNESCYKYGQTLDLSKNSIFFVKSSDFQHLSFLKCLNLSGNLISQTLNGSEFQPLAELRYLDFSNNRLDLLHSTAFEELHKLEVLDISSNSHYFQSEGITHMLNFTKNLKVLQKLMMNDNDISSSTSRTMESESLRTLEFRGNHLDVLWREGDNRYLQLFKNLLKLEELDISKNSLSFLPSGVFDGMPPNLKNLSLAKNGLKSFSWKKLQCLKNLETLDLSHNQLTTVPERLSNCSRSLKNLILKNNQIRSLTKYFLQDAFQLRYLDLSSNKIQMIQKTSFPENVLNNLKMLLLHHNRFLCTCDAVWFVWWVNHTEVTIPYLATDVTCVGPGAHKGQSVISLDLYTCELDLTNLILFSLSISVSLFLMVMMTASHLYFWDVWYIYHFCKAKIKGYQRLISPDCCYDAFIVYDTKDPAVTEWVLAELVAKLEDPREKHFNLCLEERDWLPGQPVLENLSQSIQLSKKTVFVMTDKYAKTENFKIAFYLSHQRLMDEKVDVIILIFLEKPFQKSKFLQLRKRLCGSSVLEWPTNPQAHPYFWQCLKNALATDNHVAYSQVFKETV
Assay: TLR7 inhibition reporter assay (HEK-Blue cells, SEAP reporter, gardiquimod stimulation)
Details: HEK-Blue cells overexpressing human TLR7, SEAP reporter, gardiquimod 7.5 μM
Excerpt: TLR7/8/9 Inhibition Reporter Assays HEK-Blue™-cells (Invivogen) overexpressing human TLR7, TLR8 or TLR9 receptors were used for screening inhibitors of these receptors using an inducible SEAP (secreted embryonic alkaline phosphatase) reporter gene under the control of the IFN-β minimal promoter fused to five NF-κB and AP-1-binding sites. […]
pIC50: −log10 of the molar value.

CC(C)c1c(-c2cc3c(s2)CNCC3)[nH]c2ccc(C3CCNCC3)cc12 :: 6.00 to 7.00

Requested read-out: pIC50. Entry: `Cc1c(-c2ccnc3[nH]cc(C)c23)[nH]c2ccc(C3CCNCC3)cc12` 6.00 to 7.00

Quick one: pIC50 for `Cc1cc(-c2[nH]c3ccc(C4CCN(C(=O)CN(C)C)CC4)cc3c2C(C)C)cc2cnnn12` ? > 7.00

Return reported pIC50; argument: `Cc1nc2c(-c3[nH]c4ccc(C5CCNCC5)cc4c3C(C)C)cccn2n1` > 7.00

# pIC50 lookup, item `CC(C)c1c(-c2ccc3onc(N)c3c2)[nH]c2ccc(C3CCNCC3)cc12` > 7.00

Fill in the blank: the reported pIC50 of `CC(C)c1c(-c2cc(Cl)cc3nccn23)[nH]c2ccc(C3CCNCC3)cc12` is ____. > 7.00

Looking for the measured pIC50 of `CNC(=O)CN1CCC(c2ccc3[nH]c(-c4ccnc5[nH]ncc45)c(C(C)C)c3c2)CC1` , can you help? > 7.00

Requested read-out: pIC50. Entry: `CNC(=O)CN1CCC(c2ccc3[nH]c(-c4cc(OC)n5nc(C)nc5c4)c(C(C)C)c3c2)CC1` > 7.00

Quick check: pIC50 of `Cc1cc(-c2[nH]c3ccc(C4CCN(CC(=O)N(C)C)CC4)cc3c2C(C)C)cc2nccnc12` ? > 7.00

----------
Target: UniProtKB Q9NR97
Sequence (Q9NR97 27-1041): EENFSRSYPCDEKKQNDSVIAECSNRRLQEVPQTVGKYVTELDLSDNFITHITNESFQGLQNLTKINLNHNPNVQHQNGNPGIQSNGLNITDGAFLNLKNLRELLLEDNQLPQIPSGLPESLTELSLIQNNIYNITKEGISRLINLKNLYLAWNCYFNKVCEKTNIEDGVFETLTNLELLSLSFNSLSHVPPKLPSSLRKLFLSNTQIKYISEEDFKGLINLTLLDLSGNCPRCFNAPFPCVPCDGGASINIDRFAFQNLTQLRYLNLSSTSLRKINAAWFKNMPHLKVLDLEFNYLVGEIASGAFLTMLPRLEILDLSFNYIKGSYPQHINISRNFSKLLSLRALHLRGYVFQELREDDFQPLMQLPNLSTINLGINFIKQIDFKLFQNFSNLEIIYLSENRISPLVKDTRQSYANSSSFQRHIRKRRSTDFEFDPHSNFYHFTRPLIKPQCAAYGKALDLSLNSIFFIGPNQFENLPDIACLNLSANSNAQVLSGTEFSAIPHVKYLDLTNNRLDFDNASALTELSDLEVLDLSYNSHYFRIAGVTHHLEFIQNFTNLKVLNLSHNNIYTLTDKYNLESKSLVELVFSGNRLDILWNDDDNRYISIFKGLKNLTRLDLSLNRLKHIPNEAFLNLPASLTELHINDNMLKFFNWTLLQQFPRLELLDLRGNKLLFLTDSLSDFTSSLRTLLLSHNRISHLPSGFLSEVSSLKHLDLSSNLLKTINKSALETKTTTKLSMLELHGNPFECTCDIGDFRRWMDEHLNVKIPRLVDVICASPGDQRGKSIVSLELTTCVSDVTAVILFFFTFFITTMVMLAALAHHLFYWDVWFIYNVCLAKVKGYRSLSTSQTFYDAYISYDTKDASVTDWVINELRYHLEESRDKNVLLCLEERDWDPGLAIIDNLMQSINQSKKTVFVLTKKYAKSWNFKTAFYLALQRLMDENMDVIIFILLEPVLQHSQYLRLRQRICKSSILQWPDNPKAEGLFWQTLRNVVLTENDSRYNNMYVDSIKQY
Assay: TLR8 inhibition reporter assay (HEK-Blue cells, SEAP reporter, R848 stimulation)
Conditions: HEK-Blue cells overexpressing human TLR8, SEAP reporter, R848 15.9 μM
Metric Name: IC50

Cc1ccnc2[nH]cc(-c3[nH]c4ccc(C5CCN(C(=O)CN(C)C)CC5)cc4c3C(C)C)c12 :: 100 to 1000 nM
CCc1c(-c2ccnc3nn[nH]c23)[nH]c2ccc(C3CCNCC3)cc12 :: 1000 to 50000 nM
CC(C)c1c(-c2c[nH]c3cnccc23)[nH]c2ccc(C3CCNCC3)cc12 :: 1000 to 50000 nM
Cc1nn2ccc(-c3[nH]c4ccc(C5CCNCC5)cc4c3C(C)C)cc2c1F :: 100 to 1000 nM
CC(C)c1c(-c2cc(CO)c3nccn3c2)[nH]c2ccc(C3CCN(C(=O)CN(C)C)CC3)cc12 :: < 100 nM
Cc1cc(-c2[nH]c3ccc(C4CCN(CC(C)(C)O)CC4)cc3c2C(C)C)cc2nccn12 :: 100 to 1000 nM
CC(C)c1c(-c2ccc3cncn3c2)[nH]c2ccc(C3CCNCC3)cc12 :: 100 to 1000 nM
Cc1c(-c2[nH]c3ccc(C4CCN(CC(=O)N(C)C)CC4)cc3c2C(C)C)nn2ncnc2c1C :: < 100 nM
CC(C)c1c(-c2ccc3cnnn3c2)[nH]c2ccc(C3CCN(C(=O)CN(C)C)CC3)cc12 :: 100 to 1000 nM
Cc1c(-c2[nH]c3ccc(C4CCN(C5COC5)CC4)cc3c2C(C)C)cn2nnnc2c1C :: < 100 nM

Consider the additional molecule presented here.
Given `CC(C)c1c(-c2cnc3ccnn3c2)[nH]c2ccc(C3CCN(CC(C)(C)O)CC3)cc12` , state its recorded IC50. 1000 to 50000 nM
